Listed compounds paired with reported Cell survival rate
# Tested on: A2780/Taxol
# method-notes: Cytotoxicity against human A2780/Taxol cells assessed survival rate at 10 uM incubated for 48 hrs by MTT assay
# Assay type: functional
Reply with just the number (in %).

1) COc1cc(C(=O)OCc2c(OC(C)C)ccc3c(C)c(CCc4ccccc4)c(=O)oc23)cc(OC)c1OC    91

## Input Fill in the blank: the reported Cell survival rate of `CCOc1ccc2c(C)c(Cc3ccc(F)cc3)c(=O)oc2c1COC(=O)/C=C/c1ccc(OC)cc1` is ____.
## Output 92

## Input Fill in the blank: the reported Cell survival rate of `Cc1cc(=O)oc2c(C(=O)Nc3ccccc3)c(OC(C)C)ccc12` is ____.
## Output 92

## Input Fill in the blank: the reported Cell survival rate of `COc1ccc(/C=C/C(=O)OCc2c(OC(C)C)ccc3c(C)c(Cc4ccc(F)cc4)c(=O)oc23)cc1` is ____.
## Output 89

## Input Fill in the blank: the reported Cell survival rate of `Cc1c(Cc2ccc(F)cc2)c(=O)oc2c(COC(=O)/C=C/c3ccccc3)c(OC(C)C)ccc12` is ____.
## Output 90

## Input Fill in the blank: the reported Cell survival rate of `COc1cc(CCC(=O)OCc2c(OC(C)C)ccc3c(C)c(Cc4ccccc4)c(=O)oc23)cc(OC)c1OC` is ____.
## Output 90

## Input Fill in the blank: the reported Cell survival rate of `COc1cc(NC(=O)c2c(OC(C)C)ccc3c(C)cc(=O)oc23)cc(OC)c1OC` is ____.
## Output 88

## Input Fill in the blank: the reported Cell survival rate of `Cc1c(Cc2ccc(C#N)cc2)c(=O)oc2c(COC(=O)/C=C/c3ccccc3)c(OC(C)C)ccc12` is ____.
## Output 91

## Input Fill in the blank: the reported Cell survival rate of `CCc1c(C)c2ccc(OC(C)C)c(COC(=O)Cc3cc(OC)c(OC)c(OC)c3)c2oc1=O` is ____.
## Output 93

## Input Fill in the blank: the reported Cell survival rate of `COc1ccccc1Cc1c(C)c2ccc(OC(C)C)c(COC(=O)Cc3cc(OC)c(OC)c(OC)c3)c2oc1=O` is ____.
## Output 92

## Input Fill in the blank: the reported Cell survival rate of `COc1ccc(/C=C/C(=O)OCc2c(OC(C)C)ccc3c(C)c(Cc4ccc(OC)cc4)c(=O)oc23)cc1` is ____.
## Output 83

## Input Fill in the blank: the reported Cell survival rate of `Cc1c(Cc2ccccc2)c(=O)oc2c(COC(=O)c3ccc(F)cc3)c(OC(C)C)ccc12` is ____.
## Output 82

## Input Fill in the blank: the reported Cell survival rate of `CCOc1ccc2c(=O)cc(CC)oc2c1COC(=O)/C=C/c1ccc(OC)cc1` is ____.
## Output 52

## Input Fill in the blank: the reported Cell survival rate of `CCc1cc(=O)c2ccc(OC(C)C)c(CNC(=O)/C=C/c3ccccc3)c2o1` is ____.
## Output 74

## Input Fill in the blank: the reported Cell survival rate of `CCOc1ccc2c(=O)cc(CC)oc2c1CNC(=O)/C=C/c1ccc(OC)cc1` is ____.
## Output 91

## Input Fill in the blank: the reported Cell survival rate of `Cc1c(Cc2ccccc2)c(=O)oc2c(COC(=O)Cc3ccccc3)c(OC(C)C)ccc12` is ____.
## Output 83

----------
Listed compounds paired with reported Cell survival rate
# Test system: A2780/Taxol
# method-notes: Cytotoxicity against human A2780/Taxol cells assessed survival rate at 10 uM incubated for 48 hrs by MTT assay
# Format: functional
Reply with just the number (in %).

## Input Fill in the blank: the reported Cell survival rate of `CCOc1ccc2c(C)c(Cc3ccc(OC)cc3)c(=O)oc2c1COC(=O)/C=C/c1ccc(OC)cc1` is ____.
## Output 90

## Input Fill in the blank: the reported Cell survival rate of `COc1ccc(/C=C/C(=O)OCc2c(OC(C)C)ccc3c(C)c(Cc4ccc(C(F)(F)F)cc4)c(=O)oc23)cc1` is ____.
## Output 94

## Input Fill in the blank: the reported Cell survival rate of `COc1cc(CC(=O)NCc2c(OC(C)C)ccc3c(C)cc(=O)oc23)cc(OC)c1OC` is ____.
## Output 90

## Input Fill in the blank: the reported Cell survival rate of `CCc1cc(=O)c2ccc(OC(C)C)c(CNC(=O)/C=C/c3ccc(OC)cc3)c2o1` is ____.
## Output 79
